- system_under_test: Yap3 (UniProt P38749)
- Sequence: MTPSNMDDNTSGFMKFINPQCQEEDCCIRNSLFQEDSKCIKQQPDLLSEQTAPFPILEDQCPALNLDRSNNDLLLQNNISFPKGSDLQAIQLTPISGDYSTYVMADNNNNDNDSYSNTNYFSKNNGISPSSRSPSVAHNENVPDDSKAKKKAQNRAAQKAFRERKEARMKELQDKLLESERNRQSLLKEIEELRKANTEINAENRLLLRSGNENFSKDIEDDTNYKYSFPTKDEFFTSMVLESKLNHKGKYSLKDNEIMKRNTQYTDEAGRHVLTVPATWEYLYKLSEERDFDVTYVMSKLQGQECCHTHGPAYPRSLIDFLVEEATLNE
- assay_comment: PBM E-score (8-mer binding enrichment) (E-score (-0.5 to 0.5)); higher = stronger / more preferred TF binding
- settings: protein concentration: 100 nM; construct: GST-full length
Over roughly 33,000 sequences, “E-score (-0.5 to 0.5)” has its median near -0.0034; the highest 2% begin near 0.25. The list comes from a sample in which the highest values are over-represented; it also holds close analogues and randomly drawn sequences.
Response key: label 1 means PBM E-score >= 0.2; label 0 means PBM E-score < 0.2.

- residues: "ATAATATC"
  system_under_test: "Yap3 (UniProt P38749)"
  label_value: "label 0"
- residues: "ATAATATG"
  system_under_test: "Yap3 (UniProt P38749)"
  label_value: "label 1"
- residues: "AGCAACGC"
  system_under_test: "Yap3 (UniProt P38749)"
  label_value: "label 0"
- residues: "AAAGGTAA"
  system_under_test: "Yap3 (UniProt P38749)"
  label_value: "label 0"
- residues: "TAGCAACA"
  system_under_test: "Yap3 (UniProt P38749)"
  label_value: "label 0"
- residues: "GCTCCAGC"
  system_under_test: "Yap3 (UniProt P38749)"
  label_value: "label 0"
- residues: "GGGTAAAA"
  system_under_test: "Yap3 (UniProt P38749)"
  label_value: "label 1"
- residues: "CTCGTAAG"
  system_under_test: "Yap3 (UniProt P38749)"
  label_value: "label 1"
- residues: "ATAATCTA"
  system_under_test: "Yap3 (UniProt P38749)"
  label_value: "label 1"
- residues: "GGGTAAAC"
  system_under_test: "Yap3 (UniProt P38749)"
  label_value: "label 0"
- residues: "AACTAGCT"
  system_under_test: "Yap3 (UniProt P38749)"
  label_value: "label 0"
- residues: "AGAGCCAG"
  system_under_test: "Yap3 (UniProt P38749)"
  label_value: "label 0"
- residues: "CTAATATA"
  system_under_test: "Yap3 (UniProt P38749)"
  label_value: "label 1"
- residues: "GGAGATAA"
  system_under_test: "Yap3 (UniProt P38749)"
  label_value: "label 0"
- residues: "AGAATATA"
  system_under_test: "Yap3 (UniProt P38749)"
  label_value: "label 0"
- residues: "CCCTGTCC"
  system_under_test: "Yap3 (UniProt P38749)"
  label_value: "label 0"
- residues: "CGAATATA"
  system_under_test: "Yap3 (UniProt P38749)"
  label_value: "label 0"
- residues: "GTAATCTA"
  system_under_test: "Yap3 (UniProt P38749)"
  label_value: "label 1"
- residues: "ACCCTTTA"
  system_under_test: "Yap3 (UniProt P38749)"
  label_value: "label 0"
- residues: "CTCGTAAC"
  system_under_test: "Yap3 (UniProt P38749)"
  label_value: "label 0"
- residues: "ATTGTTCA"
  system_under_test: "Yap3 (UniProt P38749)"
  label_value: "label 0"
- residues: "CAGGTGCG"
  system_under_test: "Yap3 (UniProt P38749)"
  label_value: "label 0"
